EC50 for assorted binders
- subject_of_test: SARS-CoV-2 BA.2 spike trimer variant (SARS-CoV-2 Omicron BA.2, UniProt P0DTC2 16-1213)
- method_summary: ELISA
The response must be a number in nM with no trailing unit.

Answered examples (3):
[
  {
    "binder": "4-K16-A (antibody, V domains shown) VH: QIQLVQSGPELKKPGETVKISCKASGYTFTTYGMSWVKQAPGKGLKWMGWMSTYSGVPTYADDFKGRFAFSLETSASTAYLQINNLKNEDTATYFCASGDVGYWGQGTTLTVSS VL: DIVMTQSQKFMSTSVGDRVSVTCKASQNVGTNVAWYQQKPGQSPKALIYSASYRYSGVPDRFTGSGSGTDFTLTISTVQSEDLAEYFCQQYNIYPSTFGGGTKLEIK",
    "experimental_value": 3.87
  },
  {
    "binder": "2-J9-A (antibody, V domains shown) VH: EVQLQQSGPELVKPGASVKMSCKASGYTFTDYNIHWVKQSHGKSLEWIGYINPNNGGTDYNQKFQGKATLTVNKSSSTAYMELRSLTSEDSAVYYCARGGFYGNYGAYYGMDFWGQGTSVTVSS VL: DIQMTQSPASLSASVGETVTITCRTSENIYSHLAWYQQTQGKSPQLLVYNTKTLAEGVPSRFTGSGSGTQFSLKINSLQPEDFGSYYCQHHYGIPPEFGGGTKLEIK",
    "experimental_value": 0.31
  },
  {
    "binder": "1-B11-A (antibody, V domains shown) VH: QVQLQQSGPELVKPGASVKISCKASGYTFTDHYINWVKQRPGQGLEWIGWIFPGSGSTYYNEQFKGKATLTVDKSSNTAYMLLSSLTSEDSAVYFCARSGGLRLGFAYWGQGTLVTVSA VL: DIQMTQTTSSLSASLGDRVTISCRASQDISNYLNWYQQKPDGTVKLLIYYTSRLHSGVPSRFSGSGSGTDYSLTISNLEQEDISTYFCQQVNTLPYTFGGGTKLEIK",
    "experimental_value": 181
  }
]

Please look up its EC50: 10-B11-A (antibody, V domains shown) VH: QVQLQQPGAELVKPGASVKVSCKASGYTFTSYWMHWVKQRPGQGLEWIGRIHPSDSDTNYYQKFKGKATLSVDKSSSTAYMQLSSLTSEDSAVYYCAIPLYSYDNSGGYYPMDYWGQGTSVTVSS VL: DIVMTQSQKFMSTSVGDRVTITCKASQNVRTAVAWYQQKPGQSPKKLIYLASNRHTGVPDRFTGSGSGTDFTLAISNVQSEDLADYFCLQHWNYPFTFGSGTRLEIK
0.84

Reported EC50 for 9-J11-A (antibody, V domains shown) VH: QVQLQQSGAELVKPGASVKMSCMASGYTFTTYPIEWMKQIHGKSLEWIGNFHPYNDDSKYNEKFKGKATLSVEKSSSTVYLELSRSTSDDSAVYYCARGSYGPYWYFDVWGTGTTVTVSS VL: DIQMTQSPASLSASVGETVTITCRASGDIHNYLVWYQQKQGKSPQLLVYNAKALADGVPSRFSGSGSGTQYSLKINSLQPDDFGSYYCQHFWSIPYTFGGGTKLEIK : what is it?
8.21

Dear colleague, I am looking for the recorded EC50 of the following binder: 3-E13-A (antibody, V domains shown) VH: EVQLQQSGPELVKPGASVKMSCKASGYTFTDYNIHWVKQSHGKSLEWIGYINPNNGGTDYNQKFQGKATLTVNKSSSTAYMELRSLTSEDFAVYYCARGGFYGNYGAYYGMDFWGQGTSVTVSS VL: DIQMTQSPASLSASVGETVTITCRTSENIYSHLAWYQQTQGKSPQLLVYNAKTLAEGVPSRFSGSGSGTHFSLKINSLQPEDFGSYYCQHHYGIPPEFGGGTKLEIK
0.35

What value of measured EC50 is listed for 9-L13-A (antibody, V domains shown) VH: QVQLKESGPGLVAPSQSLSITCTVSGFSLTSYAISWVRQPPGKGLEWLGLIWTGGGTNYNSALKSRLSISKDNSKSQIFLKMNSLQTDDTARYYCARGPPLIYYGDLYYFDYWGQGTTLTVSS VL: DIQMTQSPSSLSASLGGKVTITCKASQDINKYIAWYQHKPGKGPRLLIHYTSTLQPGIPSRFSGSGSGRDYSFSISNLEPEDIATYYCLQYDNLWTFGGGTKLEIK ?
12

What does the data say about its EC50? Entry: 9-P9-A (antibody, V domains shown) VH: DVKLVESGEGLVKPGGSLKLSCAASGFSFSNFGMSWVRQTPEKRLEWVAYISSGGDYIYYADTVKGRFTISRDNARNTLYLQMSSLKSEDTAIYYCTRGYFDYWGQGTTLTVSS VL: DVLMTQTPLSLPVSLGDQASISCRSSQSIVHSNGNTYLEWYLQKPGQSPKLLIYTVSNRFSGVPDRFSGSGSGTDFTLKISRVEAEDLGVYYCFQGSHVPYTFGGGTKLEMR
0.3

Dear colleague, I am looking for the recorded EC50 of the following binder: 2-P2-A (antibody, V domains shown) VH: EVQLQQSGAELVRPGSSVKMSCKTSGYTFTSYGINWVKQRPGQGLEWIGYIYIGNGYTEYNEKFKGKATLTSDTSSSTAYMQLSSLTSEDSAIYFCARGGVDYWGQGTTLTVSS VL: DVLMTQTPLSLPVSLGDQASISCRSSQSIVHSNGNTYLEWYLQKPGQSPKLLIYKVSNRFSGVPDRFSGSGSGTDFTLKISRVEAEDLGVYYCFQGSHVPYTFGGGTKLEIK
0.5

// query EC50 value for entry 8-N24-A (antibody, V domains shown) VH: QVQLQQPGAELVKPGASVKVSCKASGYTFTSYWMHWVKQRPGQGLEWIGRIHPSDSDTNYYQKFKGKATLSVDKSSSTAYMQLSSLTSEDSAVYYCAIPLYSYDNSGGYYPMDYWGQGTSVTVSS VL: DIVMTQSQKFMSTSVGDRVTITCKASQNVRTAVAWYQQKPGQSPKKLIYLASNRHTGVPDRFTGSGSGTDFTLAISNVQSEDLADYFCLQHWNYPFTFGSGTRLEIK
3.25

Data credit: patent US20230115257A1
